B1: Double-stranded RNA-binding protein Staufen homolog 1, residues 183 to 249; numbered along this chain, O95793 (parent)
chain: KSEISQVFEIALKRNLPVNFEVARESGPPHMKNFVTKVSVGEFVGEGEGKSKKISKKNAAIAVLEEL

Variants of: B1
test.details: abundance fitness (aPCA) (normalised: wild type 0, dead -1); higher = more abundant; growth selection in yeast, the domain comes from the species named
condition: Homo sapiens
Decide using abundance fitness: a value greater than or equal to -0.4 is Criterion met, a smaller one is Criterion not met.

Reference set (6 entries):
• K56A = Criterion not met
• P17W = Criterion not met
• V18S = Criterion not met
• E25R = Criterion met
• N58C = Criterion not met
• A62G = Criterion met

Prompt: Form field: abundance fitness at least -0.4? Entry: `E66F`
Response: Criterion met

Prompt: Please tell me: is the variant `K53V` at or over -0.4 in terms of abundance fitness?
Response: Criterion met

Prompt: Please check the record `V38M` and state if its abundance fitness is at or above -0.4.
Response: Criterion met
